Tested on: normal mice
Experiment notes: Hypoglycemic effect of synthetic polypeptides on normal mice after subcutaneous injection (Example 9)
Format: in vivo, Kunming white mice
Condition set: 1 mg/mL at 0.05 ml/10 g, single subcutaneous injection on the back
Bridge positions count the residues as written; N and C are the ends. Ends that are not written are not given here.
Readout name: Blood glucose level at 15 min after administration

Task item: Determine from records and report Blood glucose level at 15 min after administration for ISCNGVCSPFEMPPCGTSLCRCIPAGLVVGYCRNPSG (disulfide 15-32, 3-20, 7-22) [SEQ ID No. 50]
Reply: 6.2 ± 0.5 mmol/L

Continuing:
Task item: Determine from records and report Blood glucose level at 15 min after administration for ISCNGVCSPFDMPPCGSPACRCIPAGLLIGYCRNPSG (disulfide 15-32, 3-20, 7-22) [SEQ ID No. 38]
Reply: 4.9 ± 0.3 mmol/L

Task item: Determine from records and report Blood glucose level at 15 min after administration for ASCNGVCSPFEMPPCGSSACRCIPVGLVVGYCRNPSG (disulfide 15-32, 3-20, 7-22) [SEQ ID No. 26]
Reply: 5.3 ± 0.4 mmol/L

###

System: normal mice
Experiment notes: Hypoglycemic effect of synthetic polypeptides on normal mice after subcutaneous injection (Example 9)
Assay type: in vivo, Kunming white mice
Condition set: 1 mg/mL at 0.05 ml/10 g, single subcutaneous injection on the back
Bridge positions count the residues as written; N and C are the ends. Ends that are not written are not given here.
sequences and their reported Blood glucose level at 15 min after administration
Give your result in mmol/L as a bare value.

Sample answers from the record:
Task item: Determine from records and report Blood glucose level at 15 min after administration for ISCNGVCSPFDIPPCGTPLCRCIPAGLFVGKCRNPYG (disulfide 15-32, 3-20, 7-22) [SEQ ID No. 36]
Reply: 6.2

Task item: Determine from records and report Blood glucose level at 15 min after administration for VSCNGVCSPFEIPPCGSPLCRCIPAGLVIGNCRNPYG (disulfide 15-32, 3-20, 7-22) [SEQ ID No. 63]
Reply: 5.9

Task item: Determine from records and report Blood glucose level at 15 min after administration for ISCNGVCSPFEIPPCGSSLCRCIPAGLLVGKCRNPSG (disulfide 15-32, 3-20, 7-22) [SEQ ID No. 44]
Reply: 6.3

Continuing:
Task item: Determine from records and report Blood glucose level at 15 min after administration for VSCNGVCSPFDMPPCGTSACRCIPAGLFIGYCRNPSG (disulfide 15-32, 3-20, 7-22) [SEQ ID No. 61]
Reply: 5.6
